Data origin, for the record: ChEMBL document CHEMBL4665636

# METHOD SUMMARY: Cytotoxicity against human PCS-130-010 cells assessed as reduction in cell viability up to 200 uM measured up to 48 hrs by MTT assay
# Format: cell-based
# CONDITION SET: pcs-130-010, 48 h

| COMPOUND | Activity |
| --- | --- |
| O=C1Nc2ccccc2C12NC(Cc1ccc(O)cc1)C([N+](=O)[O-])C2c1cccc([N+](=O)[O-])c1 (centres undefined) | Non-Toxic |
| O=C1Nc2ccc(OC(F)(F)F)cc2C12NC(Cc1ccc(O)cc1)C([N+](=O)[O-])C2c1ccc(Br)cc1 (centres undefined) | Non-Toxic |
| COc1ccc(C2C([N+](=O)[O-])C(Cc3ccc(O)cc3)NC23C(=O)Nc2ccc(OC(F)(F)F)cc23)cc1 (centres undefined) | Non-Toxic |
| O=C1Nc2ccc(OC(F)(F)F)cc2C12NC(Cc1ccc(O)cc1)C([N+](=O)[O-])C2c1ccccc1 (centres undefined) | Non-Toxic |

---

# System: Jurkat
# METHOD SUMMARY: Antiproliferative activity against human Jurkat cells assessed as reduction in cell proliferation measured after 24 hrs by MTT assay
# Format: functional, cell-based
TEST READOUT: IC50 (µM)
Express the result in µM but write the number alone.

Worked examples follow.
| MOLECULE | MEASUREMENT TARGET | IC50 / µM |
| --- | --- | --- |
| O=C1Nc2ccc(OC(F)(F)F)cc2C12NC(Cc1ccc(O)cc1)C([N+](=O)[O-])C2c1ccc(Br)cc1 (stereo not drawn) | Jurkat | 67.2 |
| O=C1Nc2ccccc2C12NC(Cc1ccc(O)cc1)C([N+](=O)[O-])C2c1ccccc1 (stereo not drawn) | Jurkat | 98.3 |
| Cc1ccc(C2C([N+](=O)[O-])C(Cc3ccc(O)cc3)NC23C(=O)Nc2ccc(OC(F)(F)F)cc23)cc1 (stereo not drawn) | Jurkat | 52.8 |
| O=C1Nc2ccccc2C12NC(Cc1ccc(O)cc1)C([N+](=O)[O-])C2c1ccc(Br)cc1 (stereo not drawn) | Jurkat | 73.4 |
| O=C1Nc2ccccc2C12NC(Cc1ccc(O)cc1)C([N+](=O)[O-])C2c1cccc([N+](=O)[O-])c1 (stereo not drawn) | Jurkat | 74.6 |
| COc1ccc(C2C([N+](=O)[O-])C(Cc3ccc(O)cc3)NC23C(=O)Nc2ccccc23)cc1 (stereo not drawn) | Jurkat | 76.2 |
| Cc1ccc(C2C([N+](=O)[O-])C(Cc3ccc(O)cc3)NC23C(=O)Nc2ccccc23)cc1 (stereo not drawn) | Jurkat | 114 |

--- query ---
Task: Value lookup for IC50; key = CC[C@@]1(O)C(=O)OCc2c1cc1n(c2=O)Cc2cc3ccccc3nc2-1 [CAMPTOTHECIN]
Output: 51.5

---

# Test system: Jurkat
# METHOD SUMMARY: Antiproliferative activity against human Jurkat cells assessed as reduction in cell proliferation measured after 24 hrs by MTT assay
# Format: functional, cell-based
API: label(entry) gives TRUE if the entry's IC50 is strictly smaller than 70 µM; on equality or larger values it gives FALSE.

# count of solved cases: 4
| COMPOUND | ASSIGNED CATEGORY |
| --- | --- |
| COc1ccc(C2C([N+](=O)[O-])C(Cc3ccc(O)cc3)NC23C(=O)Nc2ccc(OC(F)(F)F)cc23)cc1 (stereo not given) | TRUE |
| O=C1Nc2ccc(OC(F)(F)F)cc2C12NC(Cc1ccc(O)cc1)C([N+](=O)[O-])C2c1ccccc1 (stereo not given) | TRUE |
| O=C1Nc2ccc(OC(F)(F)F)cc2C12NC(Cc1ccc(O)cc1)C([N+](=O)[O-])C2c1cccc([N+](=O)[O-])c1 (stereo not given) | FALSE |
| O=C1Nc2ccc(OC(F)(F)F)cc2C12NC(Cc1ccc(O)cc1)C([N+](=O)[O-])C2c1ccc(Cl)cc1 (stereo not given) | TRUE |

Task: Decide: IC50 of O=C1Nc2ccccc2C12NC(Cc1ccc(O)cc1)C([N+](=O)[O-])C2c1ccc(Cl)cc1 (stereo not given) strictly below 70 µM?
Output: FALSE
